The origin of these recorded values is the RNAGym collection of RNA variant scans (doi:10.1126/science.aae0568).

B1: tRNA (parent)
chain: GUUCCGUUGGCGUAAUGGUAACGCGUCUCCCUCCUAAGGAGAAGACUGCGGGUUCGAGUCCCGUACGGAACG

Variants of: B1
experiment summary: yeast fitness relative to wild type (ratio to wild type); higher = fitter; tRNA-Arg(CCU), competitive growth, 37 C, YPD
This sample holds only a part of the variants without activity.
Listing: yeast fitness of selected variants
Lab note: write the figure by itself, no unit.

Reference set, count: 5
GUUCCGUUGGCGCAAUGGUAACACGUCUCCCUCCUAAGGAGAAGACUGCGGGUUCGAGUCCCAUACGGAUCG [U13C G23A G63A A70U]    0.527
GUUCCGUUGGCGUAAUGGUAACGCGUCUCCCUCCUAACGAGAAGACUGCGGGUUCGAGUCCCGUACUGAACG [G38C G67U]    0.549
GUUCCGUUGGCGUAAUGGUCACGCGUCUCCCUCCUAAGGAGAAGACACCGGGUUCGAGUCCCGUACGGAACG [A20C U47A G48C]    0.526
GUUCCGUUGGCGUUAUGGAAACGCGUCUCCCUCCUAAGGAGAAGACUGCGGGUUCGAGUCCCGUACGGAACG [A14U U19A]    0.709
GUUCCGUUGGCGUAAUGGUAACGCGUGUCCCUCCUAAGGAGAAGACUGCGGGUUCGAGGCCCGUACGGAACG [C27G U59G]    0.641

### Prompt Could you tell me which yeast fitness is on file for GUUCCGUUGGCGUAAUCGUAACGCGUCUCCAUCCUAAGGAGAAGACUGCGGGUUCGAGUCCCGUACGGAACG [G17C C31A] ?
### Response 0.551

### Prompt Consider next the variant GUUCCGUUGGCGUAAUGGUAACGCGUCUCCUUCCUAAGGAGAAGAAUGCGGGUUCGAGUCCCGUUCGGUACG [C31U C46A A65U A69U] in the same way.
### Response 0.58

### Prompt Subsequent entry: GUUCCGAUGGCGUAAUGGUACCGCGUCUCCCUACUAAGGAGAAGUCUGCGGGUUCGAGUCCCGUACGGAACG [U7A A21C C33A A45U]
### Response 0.616

### Prompt What do we get for GUUCCGUUGGCGUAAUGGUAACGCGUCUCACUCCUGAGGAGAAGACUGCGGGUUCGAGUCCCGUACCGAACG [C30A A36G G67C] ?
### Response 0.537

### Prompt Same question for GUUCCGUUGGCGUAAUGGUAACGCGUCUCCCUCCUAAGAAGAAGACUGCGGGUUCGAGUCCCGUACGGAACG [G39A] please.
### Response 0.986

### Prompt How about this variant: GUUCUGUUGGCCUAAUGGUAACGCGUCUCCCUCCUAAGGAGAAGACUGCGGGUUCGAGUCCCGUACGGAACG [C5U G12C]
### Response 0.818
